EXPERIMENTAL_SYSTEM: tau (Homo sapiens, UniProt P10636)
Sequence (P10636 623-695 limits assumed): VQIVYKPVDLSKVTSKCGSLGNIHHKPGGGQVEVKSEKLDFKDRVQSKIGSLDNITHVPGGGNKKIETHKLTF
ASSAY_PROCEDURE: MCE Phenols Library screening, tau biosensor cell seeding assay (AvZ)
Format: cell-based
REPORTED_CONDITIONS: average of raw data 1 and 2
The following compounds are shown together with reported av puncta values.
OBSERVED_PROPERTY: av puncta

>>> measured("O=C(/C=C/c1ccc(O)cc1)CC(=O)/C=C/c1ccc(O)cc1")
22516.9
>>> measured("COc1ccc(-c2oc3c(CC=C(C)C)c(O)cc(O)c3c(=O)c2O[C@@H]2O[C@@H](C)[C@H](O)[C@@H](O)[C@H]2O)cc1 [Baohuoside I]")
33434.4
>>> measured("COc1ccc(-c2coc3cc(O[C@@H]4O[C@H](CO)[C@@H](O)[C@H](O)[C@H]4O)c(OC)c(O)c3c2=O)cc1O")
21528.7
>>> measured("OC[C@H]1O[C@@H](Oc2cc(/C=C/c3cc(O)cc(O)c3)ccc2O)[C@H](O)[C@@H](O)[C@@H]1O [Piceatannol 3'-O-glucoside]")
24178.5
>>> measured("O=C(O)c1cc(O)c2c(c1)[C@H]([C@H]1c3cc(C(=O)O)cc(O)c3C(=O)c3c(O[C@@H]4O[C@H](CO)[C@@H](O)[C@H](O)[C@H]4O)cccc31)c1cccc(O[C@@H]3O[C@H](CO)[C@@H](O)[C@H](O)[C@H]3O)c1C2=O [Sennoside A]")
9021.29
>>> measured("COc1cc(/C=C/C=O)cc(OC)c1O")
20601.9
>>> measured("O=C(O)CCc1cccc(O)c1 [3-(3-Hydroxyphenyl)propionic acid]")
34577.7
>>> measured("C[C@@H]1O[C@@H](Oc2c(-c3ccc(O)cc3)oc3cc(O[C@@H]4O[C@@H](C)[C@H](O)[C@@H](O)[C@H]4O[C@@H]4O[C@H](CO)[C@@H](O)[C@H](O)[C@H]4O)cc(O)c3c2=O)[C@H](O)[C@H](O)[C@H]1O")
27858.6
>>> measured("O=C(C=Cc1ccc(O)c(O)c1)OC1CC(OC(=O)C=Cc2ccc(O)c(O)c2)(C(=O)O)CC(O)C1O (centres unmarked)")
9954.06
>>> measured("Cc1ccc(C(C)C)cc1O")
30376.1
>>> measured("Cc1ccc(O)c(O)c1")
5109.52
>>> measured("C[C@H]1CCCC(=O)CCC/C=C/c2cc(O)cc(O)c2C(=O)O1")
19802.8
>>> measured("CC(=O)c1c(C)cc2cccc(O)c2c1O")
18059
>>> measured("Oc1ccc(O)c(O)c1 [1,2,4-Trihydroxybenzene]")
3698
>>> measured("OC[C@H]1O[C@@H](Oc2cc(O)cc(/C=C/c3ccc(O)cc3)c2)[C@H](O)[C@@H](O)[C@@H]1O (mixture of isomers) [(E/Z)-Polydatin]")
21956.3
>>> measured("COc1ccc(-c2cc(=O)c3c(O)cc(OC)cc3o2)cc1")
19598.9
>>> measured("CC(=O)OC(C)(C)CC(=O)O[C@H](CC=C(C)C)C1=CC(=O)c2c(O)ccc(O)c2C1=O")
21041.3
>>> measured("N[C@@H](Cc1ccc(O)c(Cl)c1)C(=O)O")
19517.9
>>> measured("O=C(O[C@@H]1Cc2c(O)cc(O)cc2O[C@@H]1c1cc(O)c(O)c2c(=O)c(O)cc([C@H]3Oc4cc(O)cc(O)c4C[C@H]3O)cc12)c1cc(O)c(O)c(O)c1 [Theaflavin-3'-gallate]")
320.554
>>> measured("C[C@H]1CCCC(=O)CCCCCc2cc(O)cc(O)c2C(=O)O1")
17549.1
>>> measured("O=C(O)[C@H]1O[C@@H](Oc2c(-c3ccc(O)cc3)oc3cc(O)cc(O)c3c2=O)[C@H](O)[C@@H](O)[C@@H]1O [Kaempferol 3-O-?-D-glucuronide]")
25744.8
>>> measured("O=C(O[C@@H]1Cc2c(O)cc(O)cc2O[C@H]1c1ccc(O)c(O)c1)c1cc(O)c(O)c(O)c1 [(-)-Catechin gallate]")
10148.5
>>> measured("C[C@@H]1O[C@@H](O[C@H]2[C@H](Oc3c(-c4ccc(O)cc4)oc4cc(O)cc(O)c4c3=O)O[C@H](CO)[C@@H](O)[C@@H]2O)[C@H](O)[C@H](O)[C@H]1O [Kaempferol 3-neohesperidoside]")
7935.47
>>> measured("COc1cc(/C=C/COC(=O)/C=C/c2ccc(O)c(OC)c2)ccc1O [Coniferyl ferulate]")
19449.2
>>> measured("Oc1cc2c(cc1O)[C@@H]1c3ccc(O)c(O)c3OC[C@]1(O)C2")
4731.6
>>> measured("O=C(O)C[C@H](C(=O)O)[C@H]1c2c(cc(O)c(O)c2O)C(=O)O[C@@H]1C(=O)O")
7230.09
>>> measured("COc1c(CC=C(C)C)c(O)cc2oc(=O)c(-c3ccc(O)cc3O)cc12")
28718.5
>>> measured("COc1ccc2c(=O)c(-c3ccc(O)cc3)coc2c1")
20831
>>> measured("Cc1cc(O)c2c(=O)c3c(O)cc(O)c4c5c(O)cc(O)c6c(=O)c7c(O)cc(C)c8c1c2c(c34)c(c78)c65")
9227.43
